Where do these numbers come from? They come from patent US20250049891A1.

Would you mind telling me the reported remaining at 0.5 h, 1 μM of each entry?
# assaySummary: in vitro
# conditionInfo: human, microsomes, pH 7.4
Numbered stars: 1 amine (or outer) side, 2 acyl side, 3 side chain; on linkers, the order of the positions; unused ones are H or OH. Bridge positions count the residues as written; N and C are the ends. Square brackets hold non-standard residues; d marks the D form. Peptide text beside a SMILES is read from it. ξ: configuration not given here. ξhAlg = O=C(C(CCC=[*:3])N[*:1])[*:2]; AllylGly = C=CC[CH](N)C(=O)O

get_value(item= CC(C)C[C@H](NC(=O)CN)C(=O)N[C@@H](Cc1ccc(O)cc1)C(=O)N[C@@H](Cc1ccc(O)cc1)C(=O)N[C@@H](Cc1ccccc1)C(=O)O [APN5, NH2-GLYYF-OH, reference compound] , readout=remaining at 0.5 h, 1 μM) returns 1.7%

Recorded remaining at 0.5 h, 1 μM (molecule CC(=O)NC(CC(=O)O)C(=O)NC(Cc1ccc(O)cc1)C(=O)NC(Cc1ccc(O)cc1)C(=O)NC(Cc1ccccc1)C(=O)O (centres unmarked) [DS-28, AcNH-DYYF-OH] (Ac-DYYF-OH; configuration not given here) ): 93.8%

Form field remaining at 0.5 h, 1 μM, entry NCCCCC(NC(=O)C(Cc1ccc(O)cc1)NC(=O)C(Cc1ccc(O)cc1)NC(=O)C(CC(=O)O)NC(=O)CN)C(N)=O (centres unmarked) [DS-35, NH2-GDYYK-NH2] (H-GDYYK-NH2; configuration not given here) : > 100%

// recorded remaining at 0.5 h, 1 μM for CC(C)CC(NC(=O)CN)C(=O)N(C)C(Cc1ccc(O)cc1)C(=O)NC(Cc1ccc(O)cc1)C(=O)NC(Cc1ccccc1)C(N)=O (centres unmarked) [DS-56, NH2-GLY(N-Me)YF-NH2] : 53.9%

The molecule identified as CC(C)CC1NC(=O)C(N)CC/C=C\CC(C(N)=O)NC(=O)C(Cc2ccc(O)cc2)NC(=O)C(Cc2ccc(O)cc2)NC1=O (centres unmarked) [DS-73] (H-[ξhAlg]LYY[AllylGly]-NH2; staple (Z) 1-5; configuration not given here) registered its remaining at 0.5 h, 1 μM at 71.6%
